biological target: ActRIIA and ActRIIB (on TGFB/SMAD SBE Reporter HEK293 cells) (human)
Sequence (chain, as listed by the source, chain 1 of 2): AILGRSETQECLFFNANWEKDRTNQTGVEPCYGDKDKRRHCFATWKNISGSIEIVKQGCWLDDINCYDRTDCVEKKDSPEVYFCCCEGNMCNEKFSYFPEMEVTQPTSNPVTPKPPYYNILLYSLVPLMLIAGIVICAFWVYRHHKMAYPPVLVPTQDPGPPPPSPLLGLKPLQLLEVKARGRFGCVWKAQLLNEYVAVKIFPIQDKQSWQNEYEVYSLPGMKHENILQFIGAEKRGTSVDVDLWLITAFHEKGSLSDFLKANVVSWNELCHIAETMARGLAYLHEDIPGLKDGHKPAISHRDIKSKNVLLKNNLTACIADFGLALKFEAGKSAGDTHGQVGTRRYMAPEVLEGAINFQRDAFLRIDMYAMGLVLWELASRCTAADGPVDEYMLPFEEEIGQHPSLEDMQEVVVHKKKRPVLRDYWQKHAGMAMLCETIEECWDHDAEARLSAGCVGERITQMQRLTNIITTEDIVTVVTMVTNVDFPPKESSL
Sequence (chain, as listed by the source, chain 2 of 2): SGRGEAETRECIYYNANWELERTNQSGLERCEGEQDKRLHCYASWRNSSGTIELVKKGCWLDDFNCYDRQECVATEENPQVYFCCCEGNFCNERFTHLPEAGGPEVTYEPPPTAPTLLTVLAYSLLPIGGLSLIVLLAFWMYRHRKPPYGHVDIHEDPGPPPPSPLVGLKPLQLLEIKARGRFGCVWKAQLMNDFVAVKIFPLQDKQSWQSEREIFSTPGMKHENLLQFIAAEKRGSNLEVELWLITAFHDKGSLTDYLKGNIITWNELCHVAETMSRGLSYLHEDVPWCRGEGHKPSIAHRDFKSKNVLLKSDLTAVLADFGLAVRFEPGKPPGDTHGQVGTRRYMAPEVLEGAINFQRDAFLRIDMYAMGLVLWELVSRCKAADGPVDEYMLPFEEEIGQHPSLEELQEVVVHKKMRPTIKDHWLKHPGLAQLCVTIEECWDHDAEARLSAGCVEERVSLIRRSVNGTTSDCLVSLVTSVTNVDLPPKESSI
Collected IC50 (read off the curve); Activin-stimulated SMAD reporter gene assay values appear next to each entry.
# number only, unit nM dropped from output

| binder | measurementUnit | observedMeasurement |
| --- | --- | --- |
| Antibody Fasnetsküchla (antibody, V domains shown, full-length IgG) VH: QVQLVQSGAEVKKPGASVKVSCKASGYTFTSSYINWVRQAPGQGLEWMGTINAVSGSTSYAQKFQGRVTMTRDTSISTAYMELSRLRSDDTAVYYCARGGWFDYWGQGTLVTVSS VL: QSALTQPASVSGSPGQSITISCTGTSSDVGSANYVNWYQQHPGKAPKPMIYGVSRRPSGVSNRFSGSKSGNTASLTISGLQAEDEADYYCGTFAGGKYYGVFGGGTKLTVL | nM | 0.3 |
| Bimagrumab (antibody, V domains shown) VH: QVQLVQSGAEVKKPGASVKVSCKASGYTFTSSYINWVRQAPGQGLEWMGTINPVSGSTSYAQKFQGRVTMTRDTSISTAYMELSRLRSDDTAVYYCARGGWFDYWGQGTLVTVSS VL: QSALTQPASVSGSPGQSITISCTGTSSDVGSYNYVNWYQQHPGKAPKLMIYGVSKRPSGVSNRFSGSKSGNTASLTISGLQAEDEADYYCGTFAGGSYYGVFGGGTKLTVL | nM | 0.3 |
| Antibody Rippla (antibody, V domains shown, full-length IgG; also called Ripp1a) VH: QVQLVQSGAEVRKPGASVKVSCKASGYTFTSSYINWVRQAPGQGLEWMGTINPVSGSTSYAQKFQGRVTMTRDTSISTAYMELSRLRSDDTAVYYCARGGWFDYWGQGTLVTVSS VL: QSALTQPASVSGSPGQSITISCTGTSSDVGSYNRVNWYQQHPGKAPKLMIYGVSKRESGVSNRFSGSKSGNTASLTISGLQAEDEADYYCGTFAGGRYYGVFGGGTKLTVL | nM | 0.2 |

--- query ---
# input Bench note: what IC50 (read off the curve); Activin-stimulated SMAD reporter gene assay did Antibody Hefaknöpfla (antibody, V domains shown, full-length IgG) VH: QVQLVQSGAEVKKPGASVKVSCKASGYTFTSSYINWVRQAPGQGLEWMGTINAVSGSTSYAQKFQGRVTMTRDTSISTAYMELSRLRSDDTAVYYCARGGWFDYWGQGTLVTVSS VL: QSALTQPASVSGSPGQSITISCTGTSSDVGSKNYVNWYQQHPGKAPKLMIYGVSKRESGVSNRFSGSKSGNTASLTISGLQAEDEADYYCGTFAGGKYYGVFGGGTKLTVL show?
# output 0.2

All values here come from patent US20250243286A1.
